B1: ZNF263 (parent)
chain: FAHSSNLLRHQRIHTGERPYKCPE

- Variants of: B1
- METHOD SUMMARY: protein stability index of a GFP-peptide fusion (GPS, HEK-293T) (PSI 1-6); higher = more stable;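 further: lentivirally expressed fusions sorted by FACS into six bins by GFP to DsRed ratio, PSI derived from sequencing read proportions per bin multiplied by bin number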
- CONDITION DESCRIPTION: c terminus: a fixed tail appended
Reported protein stability index is given for each of the following variants.
Please reply with the number alone, leaving off any unit.

Would you please look over these solved cases?
>  <MUTANT ID>
I13C

>  <protein stability index>
2.46

$$$$
>  <MUTANT ID>
P23W

>  <protein stability index>
2.2

$$$$
>  <MUTANT ID>
C22W

>  <protein stability index>
2.08

$$$$
>  <MUTANT ID>
I13W

>  <protein stability index>
1.99

$$$$
>  <MUTANT ID>
R18T

>  <protein stability index>
2.27

$$$$
>  <MUTANT ID>
C22M

>  <protein stability index>
2.26

$$$$
>  <MUTANT ID>
T15V

>  <protein stability index>
2.68

$$$$
>  <MUTANT ID>
E24C

>  <protein stability index>
1.56

$$$$

The variant listed as A2Y has a reported protein stability index of 2.55

The variant listed as A2E has a reported protein stability index of 3.69

The variant listed as P19M has a reported protein stability index of 3.05

The variant listed as G16D has a reported protein stability index of 2.77
